Source listed as ChEMBL document CHEMBL5390322.

Test method notes: Metabolic stability in human hepatocyte assessed as intrinsic clearance incubated for 1 to 2 hrs by LC-MS analysis
Type: ADME, cell-based
Run conditions: hepatocytes, time 1-2 hrs, read-out: CLH
Assay endpoint: CLint scaled at 10000 µM (mL/min/kg)

1. C[C@@H]1OCC2(CCN(c3cnc4nc(Sc5ccnc(N)c5Cl)ccc4n3)CC2)[C@@H]1N :: 5
2. CC1(N)CCN(c2cnc3nc(Sc4cccc(C#N)c4Cl)ccc3n2)CC1 :: 7
3. CC1(N)CCN(c2cnc3nc(Sc4ccnc(N)c4Cl)ccc3n2)CC1 :: 2

A: Nc1nccc(Sc2ccc3nc(N4CCC[C@H](N)CC4)cnc3n2)c1Cl
B: CC1(N)CCN(c2cnc3nc(-c4cccc5ccccc45)ccc3n2)CC1
Prompt line: Field: entry with larger CLint scaled at 10000 µM (options A / B ). Return value: the label identifying the chosen record.
Response line: A
